observation.type: pIC50
Schema: pIC50 number; meaning minus log10 of the concentration expressed in molar units.

Short answer on Human CYP2C8 (Homo sapiens (Human)) for C#CC(=O)N1CCC(n2nc(-c3ccc(Oc4ccccc4)cc3)c3c(N)ncnc32)C1 (centres unmarked) [Comparative compound B, reference compound] , pIC50: 5.16

---

target: Human CYP2C19 (Homo sapiens (Human), UniProt P33261)
Sequence (P33261 whole entry): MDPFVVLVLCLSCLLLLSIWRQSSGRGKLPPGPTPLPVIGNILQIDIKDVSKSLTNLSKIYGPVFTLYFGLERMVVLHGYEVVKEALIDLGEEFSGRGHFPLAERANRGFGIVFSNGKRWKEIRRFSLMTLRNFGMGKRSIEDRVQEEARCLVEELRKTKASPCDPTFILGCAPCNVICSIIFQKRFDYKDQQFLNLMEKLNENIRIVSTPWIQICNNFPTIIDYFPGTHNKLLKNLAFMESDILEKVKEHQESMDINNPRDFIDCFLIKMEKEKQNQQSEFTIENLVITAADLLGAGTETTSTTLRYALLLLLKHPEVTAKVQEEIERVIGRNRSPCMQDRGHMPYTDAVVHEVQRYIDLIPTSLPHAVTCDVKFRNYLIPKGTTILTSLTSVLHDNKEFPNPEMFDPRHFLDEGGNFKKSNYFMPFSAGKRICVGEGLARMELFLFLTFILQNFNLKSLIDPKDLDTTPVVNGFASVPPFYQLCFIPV
For each entry below, report its pIC50 value.
The scale used: pIC50 is minus the common logarithm of the concentration in molar units.

Tested on Human CYP2C19 (Homo sapiens (Human), UniProt P33261), the item C=CC(=O)N1CCC[C@@H](n2nc(-c3ccc(Oc4ccccc4)cc3)c3c(N)ncnc32)C1 [Comparative compound A, reference compound] showed pIC50 equal to 5.25

Value (pIC50, Human CYP2C19 (Homo sapiens (Human), UniProt P33261)) for record C#CC(=O)N1CCC(n2nc(-c3ccc(Oc4ccccc4)cc3)c3c(N)ncnc32)C1 (stereo not drawn) [Comparative compound B, reference compound] = 5.09

---

Test system: Human liver cells
method.description: Cytotoxicity in cultured human hepatoma cells (ATP concentration, Celltiter Glo)
Assay type: cell-based
protocol.conditions: 50% decline in ATP concentration, exposure for 24 hours, read-out: Toxicity for human liver cells (IC50 (μM))
Procedure: Measurement of the Cytotoxicity and Ability to Reduce the Mitochondrial Membrane Potential in Cultured Human Hepatoma Cells Human liver cells were seeded into a collagen-coated 96-well plate at a cell density of 30,000 cells/well and incubation was carried out overnight in an incubator at 37° C. in 5% CO2-95% air. […] The membrane potential was determined by the ratio between the 544 nm/590 nm measurement value and the 485 nm/538 nm measurement value. […]
What IC50 was measured for each of the following?

Consider CC#CC(=O)N1CC[C@@H](n2c(=O)n(-c3ccc(Oc4ccccc4)cc3)c3c(N)ncnc32)C1 [Example 19(2)] . Its measured IC50 is 135 µM

Briefly, IC50 measured for CN(C)C/C=C/C(=O)N1CCC(n2c(=O)n(-c3ccc(Oc4ccccc4)cc3)c3c(N)ncnc32)C1 (stereo not drawn) [Example 11(24)] : 213 µM

compound CC#CC(=O)N1CCC(n2c(=O)n(-c3ccc(Oc4ccccc4)cc3)c3c(N)ncnc32)C1 (stereo not drawn) [Example 19(9)] , IC50 observed: 97 µM

Value of IC50 reported for the compound C=CC(=O)N1CC(n2c(=O)n(-c3ccc(Oc4ccccc4)cc3)c3c(N)ncnc32)C1 [Example 8] is 290 µM

So for C=CC(=O)N1CCC[C@@H](n2nc(-c3ccc(Oc4ccccc4)cc3)c3c(N)ncnc32)C1 [Comparative compound A, reference compound] , the logged IC50 turned out to be 78 µM

C#CC(=O)N1CCC(n2nc(-c3ccc(Oc4ccccc4)cc3)c3c(N)ncnc32)C1 (stereo not drawn) [Comparative compound B, reference compound] yielded IC50 of < 6.25 µM

---

Measurement record for Btk (Homo sapiens (Human), UniProt Q06187); quantity recorded: pIC50.
Bear in mind: pIC50 is minus log10 of a mol/L concentration; give just that figure.

According to the records, this compound CC#CC(=O)N1CC[C@@H](n2c(=O)n(-c3ccc(C(=O)c4ccccc4)cc3)c3c(N)ncnc32)C1 displays pIC50 of 7.96

Form: compound = C=CC(=O)N1CCC(Cn2c(=O)n(-c3ccc(Oc4ccccc4)cc3)c3c(N)ncnc32)CC1 ; pIC50 = 8.40
